Experiment: chemical genetic growth profiling, strain panel (AID 1159580);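 also: tested at 20 µM; growth read once vehicle control cultures reached saturation at 30 °C; 1 = growth at the plate median or of vehicle wells; lower values mean less growth of the strain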
Conditions: S. cerevisiae deletion strains, growth OD, locus YER111C, strain swi4, active compounds read low
About 2,000 (36%) of roughly 5,500 compounds were called active. Not shown: some 18% with an inconclusive outcome. This is one part of the list.

>  <molecule>
COc1cccc2c1C(=O)c1c(O)c3c(c(O)c1C2=O)C[C@@](O)(C(=O)CO)C[C@@H]3O[C@H]1C[C@H](N)[C@@H](O)[C@H](C)O1

>  <normalized growth>
0.988

$$$$
>  <molecule>
COc1ccc2c(c1)c(CC(=O)OCC(=O)O)c(C)n2C(=O)c1ccc(Cl)cc1

>  <normalized growth>
0.991

$$$$
>  <molecule>
Nc1ccc(S(=O)(=O)Nc2ccnn2-c2ccccc2)cc1

>  <normalized growth>
1.01

$$$$
>  <molecule>
C#C[C@]1(OC(C)=O)CCC2C3CCC4=CC(=O)CC[C@@H]4C3CC[C@@]21C (stereo partly specified)

>  <normalized growth>
0.985

$$$$
>  <molecule>
COc1ccc2c(c1)c(CC(=O)O)c(C)n2C(=O)c1ccc(Cl)cc1

>  <normalized growth>
0.98

$$$$
>  <molecule>
Nc1c2c(nc3ccccc13)CCCC2O (stereo unspecified)

>  <normalized growth>
1

$$$$
